For each entry below, report its inhibition value.
target: Acetylcholinesterase (Homo sapiens, UniProt P22303); test: Inhibition of human AChE at 100 uM using acetylthiocholine as substrate by Ellman's method
Sequence (P22303 whole entry): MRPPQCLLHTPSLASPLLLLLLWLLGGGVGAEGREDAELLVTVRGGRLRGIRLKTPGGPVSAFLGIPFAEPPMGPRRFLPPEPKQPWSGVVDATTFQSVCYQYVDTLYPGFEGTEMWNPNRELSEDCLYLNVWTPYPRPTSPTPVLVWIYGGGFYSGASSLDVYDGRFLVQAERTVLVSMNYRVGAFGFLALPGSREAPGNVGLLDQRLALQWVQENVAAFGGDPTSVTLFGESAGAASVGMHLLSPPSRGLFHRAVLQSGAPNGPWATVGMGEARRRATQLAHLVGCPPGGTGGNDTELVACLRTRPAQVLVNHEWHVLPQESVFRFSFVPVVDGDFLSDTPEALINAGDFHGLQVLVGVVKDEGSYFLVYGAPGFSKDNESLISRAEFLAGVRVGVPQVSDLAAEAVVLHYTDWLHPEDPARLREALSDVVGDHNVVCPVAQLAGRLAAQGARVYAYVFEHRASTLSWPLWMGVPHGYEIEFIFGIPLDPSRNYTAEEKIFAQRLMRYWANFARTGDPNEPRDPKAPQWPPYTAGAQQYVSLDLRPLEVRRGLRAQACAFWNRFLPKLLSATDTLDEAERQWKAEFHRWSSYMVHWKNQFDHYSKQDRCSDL
Return type: number; implicit unit %.

inhibition lookup needed for CO[C@H]1C[C@H]2C(=C[C@@H]1OCCN1CCCCC1)[C@H]1CN2Cc2cc3c(cc21)OCO3 , thanks. 6.5

Find the recorded inhibition belonging to CO[C@H]1C[C@H]2C(=C[C@@H]1OC(=O)c1ccoc1)[C@H]1CN2Cc2cc3c(cc21)OCO3 and report it. 6.8

Query (molecule): CO[C@H]1C[C@H]2C(=C[C@@H]1OC(=O)c1cc([N+](=O)[O-])cc([N+](=O)[O-])c1)[C@H]1CN2Cc2cc3c(cc21)OCO3 ; field requested: inhibition 70.8

Request the reported inhibition associated with CO[C@H]1C[C@H]2C(=C[C@@H]1OC(=O)c1ccccc1C)[C@H]1CN2Cc2cc3c(cc21)OCO3 29.7
